assay_system: human recombinant prostanoid IP receptor (Homo sapiens)
Construct: expressed in transfected cells
Sequence (P43119 whole entry): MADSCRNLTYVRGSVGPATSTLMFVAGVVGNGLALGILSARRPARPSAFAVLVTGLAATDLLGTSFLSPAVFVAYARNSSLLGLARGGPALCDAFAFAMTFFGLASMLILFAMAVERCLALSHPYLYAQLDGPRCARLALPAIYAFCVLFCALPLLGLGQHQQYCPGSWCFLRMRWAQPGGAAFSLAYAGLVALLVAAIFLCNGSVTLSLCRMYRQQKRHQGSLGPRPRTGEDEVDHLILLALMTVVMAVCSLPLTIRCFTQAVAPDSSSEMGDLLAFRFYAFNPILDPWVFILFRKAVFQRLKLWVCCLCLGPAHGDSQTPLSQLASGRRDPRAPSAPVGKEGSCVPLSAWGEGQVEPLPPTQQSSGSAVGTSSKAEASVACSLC
assay_notes: FLIPR Ca2+ signaling PG antagonist assay, IP receptor stable cell line
Format: cell-based
measurement_setup: HEK-293 EBNA cells, standard agonist Cicaprost
readout_kind: Kb (nM)
The response must be a number in nM with no trailing unit.

INSERT INTO assay_data (compound, unit_spec, test_value) VALUES
  ('COc1ccc(COc2ccc(Cl)cc2Cn2nc(C(=O)NS(=O)(=O)c3ccccc3)cc2C)cc1 [Example 4]', 'nM', 900);

Now for the compound whose Kb we want.
Considering Cc1cc(C(=O)O)nn1Cc1cc(Br)ccc1OCC1CCCC1 [Example 2] , its Kb with human recombinant prostanoid IP receptor (Homo sapiens) was recorded as 1300
